Quick reference: bioavailability of the listed items.
- assay-summary: Oral bioavailability in human
- Assay type: ADME, organism-based
- condition-description: in vivo
observation-type: bioavailability (%)

INSERT INTO results (molecule, observation_type, u, recorded_result) VALUES
  ('CC(=O)Nc1ccc(OCC(O)CNC(C)C)cc1 (centres undefined)', 'bioavailability', '%', 95),
  ('Cc1cc(=O)n(-c2ccccc2)n1C [ANTIPYRINE]', 'bioavailability', '%', 97),
  ('C=CCc1ccccc1OCC(O)CNC(C)C (centres undefined)', 'bioavailability', '%', 96),
  ('NC[C@H]1CC[C@H](C(=O)O)CC1', 'bioavailability', '%', 55),
  ('Cc1ccccc1N1C(=O)c2cc(S(N)(=O)=O)c(Cl)cc2NC1C (centres undefined)', 'bioavailability', '%', 64),
  ('O=C(O)P(=O)(O)O', 'bioavailability', '%', 17),
  ('O=C(O)c1cc(/N=N/c2ccc(O)c(C(=O)O)c2)ccc1O', 'bioavailability', '%', 2.3),
  ('CCN1CCCC1CNC(=O)c1cc(S(N)(=O)=O)ccc1OC (centres undefined) [SULPIRIDE]', 'bioavailability', '%', 36),
  ('OC[C@H]1O[C@H](OC[C@H]2O[C@H](O[C@]3(CO)O[C@H](CO)[C@@H](O)[C@@H]3O)[C@H](O)[C@@H](O)[C@@H]2O)[C@H](O)[C@@H](O)[C@H]1O', 'bioavailability', '%', 0.3);

====

- test-target: Sodium/hydrogen exchanger 3 (Rattus norvegicus, UniProt P26433)
- Sequence (P26433 whole entry): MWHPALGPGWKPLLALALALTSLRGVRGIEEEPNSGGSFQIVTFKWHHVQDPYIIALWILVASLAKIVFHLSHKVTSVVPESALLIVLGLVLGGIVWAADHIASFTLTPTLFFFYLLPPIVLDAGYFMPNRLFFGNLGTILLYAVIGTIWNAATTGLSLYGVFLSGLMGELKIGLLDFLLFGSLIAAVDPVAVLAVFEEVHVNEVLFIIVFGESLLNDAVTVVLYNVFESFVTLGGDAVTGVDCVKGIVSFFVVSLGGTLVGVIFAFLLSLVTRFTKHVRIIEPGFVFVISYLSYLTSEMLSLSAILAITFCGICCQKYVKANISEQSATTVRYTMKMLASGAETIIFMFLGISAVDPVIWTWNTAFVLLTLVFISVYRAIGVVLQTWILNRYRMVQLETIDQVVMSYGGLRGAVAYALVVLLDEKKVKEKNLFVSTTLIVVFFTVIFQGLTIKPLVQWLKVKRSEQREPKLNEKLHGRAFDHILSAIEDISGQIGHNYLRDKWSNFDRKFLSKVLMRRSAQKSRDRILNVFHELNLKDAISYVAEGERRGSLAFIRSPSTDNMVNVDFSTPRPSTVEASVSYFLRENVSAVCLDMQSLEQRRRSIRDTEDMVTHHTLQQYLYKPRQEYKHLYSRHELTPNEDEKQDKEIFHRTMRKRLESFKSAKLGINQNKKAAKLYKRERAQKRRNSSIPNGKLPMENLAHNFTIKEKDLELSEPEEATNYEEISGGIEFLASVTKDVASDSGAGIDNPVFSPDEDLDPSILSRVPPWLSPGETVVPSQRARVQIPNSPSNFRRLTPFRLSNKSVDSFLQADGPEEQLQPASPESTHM
- assay-summary: Inhibition of rat NHE3
Quick reference: IC50 of the listed items.
observation-type: IC50 (µM)

INSERT INTO measurements (compound, observation_type, censor_symbol, recorded_result) VALUES
  ('N=C(N)NC(=O)c1nc(Cl)c(N)nc1N [AMILORIDE]', 'IC50', '>', 100),
  ('CCN(c1nc(N)c(C(=O)NC(=N)N)nc1Cl)C(C)C [5-(N-ETHYL-N-ISOPROPYL)AMILORIDE]', 'IC50', '=', 2.4);

====

- assay-summary: Oral bioavailability in human
- Type: ADME, organism-based
- condition-description: in vivo
Quick reference: bioavailability of the listed items.
observation-type: bioavailability

INSERT INTO results (compound, recorded_result) VALUES
  ('C=CCOc1ccccc1OCC(O)CNC(C)C (stereo not given)', '97%'),
  ('O=C(O)c1cc(/N=N/c2ccc(S(=O)(=O)Nc3ccccn3)cc2)ccc1O', '12%'),
  ('OC[C@@H](O)[C@@H](O)[C@H](O)[C@H](O)CO', '26%'),
  ('OC[C@H]1O[C@@H](O[C@@H]2[C@@H](CO)O[C@](O)(CO)[C@H]2O)[C@H](O)[C@@H](O)[C@H]1O (mixture of isomers)', '0.6%'),
  ('CC(C)NCC(O)COc1cccc2[nH]ccc12 (stereo not given)', '92%');

====

- test-target: Sodium/hydrogen exchanger 1 (Rattus norvegicus, UniProt P26431)
- Sequence (P26431 whole entry): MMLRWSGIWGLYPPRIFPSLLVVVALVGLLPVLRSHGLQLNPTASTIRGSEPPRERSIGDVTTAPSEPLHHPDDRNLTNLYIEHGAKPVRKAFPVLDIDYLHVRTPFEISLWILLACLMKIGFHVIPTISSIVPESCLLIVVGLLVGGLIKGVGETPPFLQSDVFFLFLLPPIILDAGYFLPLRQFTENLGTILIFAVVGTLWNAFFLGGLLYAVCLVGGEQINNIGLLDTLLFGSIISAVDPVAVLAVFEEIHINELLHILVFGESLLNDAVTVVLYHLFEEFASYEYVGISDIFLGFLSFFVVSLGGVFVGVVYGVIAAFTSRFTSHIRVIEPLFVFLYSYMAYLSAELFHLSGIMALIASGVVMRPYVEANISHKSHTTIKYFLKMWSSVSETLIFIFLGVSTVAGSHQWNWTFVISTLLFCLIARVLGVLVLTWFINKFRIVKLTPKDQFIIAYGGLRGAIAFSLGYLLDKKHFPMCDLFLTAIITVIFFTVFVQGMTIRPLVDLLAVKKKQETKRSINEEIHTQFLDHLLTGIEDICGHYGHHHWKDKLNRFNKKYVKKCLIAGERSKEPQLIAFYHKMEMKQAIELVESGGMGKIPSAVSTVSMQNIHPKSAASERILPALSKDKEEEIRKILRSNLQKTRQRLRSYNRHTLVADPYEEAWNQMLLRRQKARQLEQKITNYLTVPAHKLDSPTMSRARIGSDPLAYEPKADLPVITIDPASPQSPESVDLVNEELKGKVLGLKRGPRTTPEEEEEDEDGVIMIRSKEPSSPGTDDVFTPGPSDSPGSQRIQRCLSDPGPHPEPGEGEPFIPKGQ
pIC50: −log10 of the molar value.
observation-type: pIC50

INSERT INTO measurements (compound, recorded_result) VALUES
  ('CCN(c1nc(N)c(C(=O)NC(=N)N)nc1Cl)C(C)C [5-(N-ETHYL-N-ISOPROPYL)AMILORIDE]', 8.00);

Just for reference, ChEMBL document CHEMBL4257082 is where these values come from.
